# EXPERIMENT: qHTS for Inhibitors of Inflammasome Signaling: IL-1-beta AlphaLISA Primary Screen; further: on the % scale 0 is the no-effect control and ±100 the full control effect
# ASSAY CONTEXT: THP-1 LPS/ATP IL-1B secretion, 16 h; at 57.5 µM, active compounds read low
# Excerpt: Inflammasomes are a set of intracellular multi-protein complexes that enable autocatalytic activation of inflammatory caspases and drive the innate immune response to counter harmful agents. […] A qHTS assay, based on AlphaLISA technology, was developed to screen the Molecular Libraries Small Molecule Repository (MLSMR) to look for novel inflammasome inhibitors. The assay detects IL-1B using AlphaLISA anti-IL-1B acceptor and donor beads. […]
Screen size: about 360,000 compounds; about 17,000 (4.7%) were called active. About 5% were inconclusive and are not listed. The full list was thinned out, with actives kept by preference.
ASSAY METRIC: activity change (%)

>>> obs_value("Cn1cnnc1SCC(=O)Nc1ccc(N2CCOCC2)cc1")
19.7
>>> obs_value("O=C1C2C3C=CC(C3)C2C(=O)N1c1ccc(-c2nc3ccccc3c(=O)o2)cc1 (stereo unspecified)")
-10.4
>>> obs_value("CCOC(=O)c1c(Cc2ccc(Cl)cc2)c[nH]c1C")
-74.6
>>> obs_value("CN(C)CCCn1c(N)c(C#N)c2nc(C#N)c(C#N)nc21")
-105
>>> obs_value("Cc1ccc(NC(=O)N2CCC(c3nc4c(nnn4Cc4c(F)cccc4Cl)c(=O)[nH]3)CC2)cc1")
-69
>>> obs_value("O=C(Nc1nccs1)c1cc(S(=O)(=O)N2CCOCC2)c(Cl)cc1Cl")
-105
>>> obs_value("N#Cc1c(N)n(CCOC(=O)c2ccc(Cl)cc2)c2nc3ccccc3nc12")
-16.3
>>> obs_value("CC(=O)Nc1ccc(C=CC(=O)c2ccc([N+](=O)[O-])cc2)cc1")
1.95
>>> obs_value("CC(=O)Nc1ccc(C(=O)/C=C/c2ccc[nH]2)cc1")
-9.5
>>> obs_value("Nc1nc(NCCCN2CCOCC2)nc(Nc2ccccc2)c1[N+](=O)[O-]")
-59.1
>>> obs_value("COc1ccc(C(C#N)=C2C=CC(=NO)c3ccccc32)cc1")
-24.6
>>> obs_value("CCOC(=O)N1CCN(C(=O)CNC(=O)Cc2ccc(Cl)cc2)CC1")
-0.466
>>> obs_value("COc1cc(S(=O)(=O)N(Cc2cccs2)C2CC2)ccc1-n1cnnn1")
0
>>> obs_value("Cc1cccc(C=CC(=O)c2ccc(Cl)cc2)c1")
-29.5
>>> obs_value("COc1ccc(C(=O)NCC(=O)N/N=C/c2cccnc2)cc1")
16.9
>>> obs_value("O=C(CSc1ncn[nH]1)NCc1ccc2c(c1)OCO2")
17.5
>>> obs_value("CCOC(=O)N1CCN(C(=O)c2ccc(S(=O)(=O)Nc3cccc(C(F)(F)F)c3)cc2)CC1")
0.178
>>> obs_value("COc1ccc(-c2c(C#N)cnc(C)c2C)c(O)c1OC")
-20.7
>>> obs_value("CC(=O)NCC(=O)N1CCCC(C(=O)c2ccc3c4c(cccc24)CC3)C1 (stereo unspecified)")
-13.3
>>> obs_value("O=C(/C=C/c1ccc2c(c1)OCCO2)c1ccc(O)cc1")
-103
>>> obs_value("CCN(CC)CCNC(=O)Cn1cnc2sc(C)c(S(=O)(=O)N3CCOCC3)c2c1=O")
14.7

* * *

This section presents compounds with their documented activity change values.
# EXPERIMENT: qHTS for Inhibitors of Inflammasome Signaling: IL-1-beta AlphaLISA Primary Screen
# ASSAY CONTEXT: THP-1 LPS/ATP IL-1B secretion, 16 h; at 57.5 µM, active compounds read low
Out of some 360,000 compounds screened, about 17,000 (4.7%) were called active. Not shown: some 5% with an inconclusive outcome. What follows is part of a selection rich in actives, with near analogues and random picks from the rest.
ASSAY METRIC: activity change

>>> obs_value("CC(C)(C)c1ccc(/C=C/C(=O)NCCCn2ccnc2)cc1")
"-13.5% (inactive)"
>>> obs_value("Cc1nnc(NC(=O)C(c2ccccc2)c2ccccc2)s1")
"-5.78% (inactive)"
>>> obs_value("CC(C)CC(=O)Nc1ccc(Cc2ccncc2)cc1")
"-7.35% (inactive)"
>>> obs_value("CCCCCCC(=O)Nc1nc(C)c(-c2csc(Nc3cccc(OC)c3)n2)s1")
"-17.4% (inactive)"
>>> obs_value("CC1(C(=O)NS(=O)(=O)c2ccccc2Cl)CCN1C(=O)c1cccc(F)c1 (stereo unspecified)")
"22.3% (inactive)"
>>> obs_value("COc1cc(CC(=O)NCc2cccs2)cc(OC)c1OC")
"0% (inactive)"
>>> obs_value("CCC(C)(C)n1nnnc1C(c1ccc(OC)c(OC)c1)N1CCN(C(=O)c2ccco2)CC1 (stereo unspecified)")
"1.37% (inactive)"
>>> obs_value("CCCNC(=O)C1(C)CCN(Cc2ccc(Cl)c(Cl)c2)C1 (stereo unspecified)")
"17.3% (inactive)"
>>> obs_value("Cc1cc(C)nc(NNC2=CC(=O)CC(C)(C)C2)n1")
"31.9% (inactive)"
>>> obs_value("COc1cccc(CC(=O)Nc2nc(-c3ccc(OC)c(OC)c3)cs2)c1")
"-50.3% (active)"
>>> obs_value("CCOC(=O)C1=CC[C@@H](c2ccccc2)N(S(=O)(=O)c2ccc(C)cc2)[C@H]1c1cccc(OC)c1")
"2.13% (inactive)"
>>> obs_value("COc1ccc(CCNc2nc(-c3cccc(NC(C)=O)c3)cs2)cc1OC")
"-53.6% (active)"
>>> obs_value("Nc1nnc(SCCN2C(=O)c3ccccc3S2(=O)=O)s1")
"10.6% (inactive)"
>>> obs_value("CC(=O)NC(c1ccccc1)c1nc(-c2cccc(C(C)C)c2)cs1 (stereo unspecified)")
"-14.5% (inactive)"
>>> obs_value("CCOc1ccc(C(=O)CCC(=O)Nc2ccncc2)cc1")
"2.33% (inactive)"
>>> obs_value("CCOc1ccc(C(=O)Nc2cccc(SC)c2)cc1")
"-79.8% (active)"
